Tested on: THLE-3 human hepatoma cells
assayOverview: Drug activity persistence after incubation with THLE-3 hepatoma cells
Format: in vitro ADME
assayContext: Homo sapiens, THLE3, 24 h, 20 μM preincubated 24 h with THLE-3 hepatoma cells, diluted to 10 μM on H4 cells; read-out: hepatoma incubation Yes total Aβ (% decrease)
propertyName: inhibition at 10 µM

// inhibition at 10 µM value for O=C(NCCSCc1ccccc1Cl)c1c(Cl)cccc1Cl [Compound 76] : 49%

// sample COc1cccc(CSCCNC(=O)c2c(Cl)cccc2Cl)c1OC [Compound 52] , its inhibition at 10 µM was 1.9%

inhibition at 10 µM measured on O=C(NCCSCc1cccc(O)c1)c1c(Cl)cccc1Cl [Compound 29] = 23.1%

Record summary for O=C(NCCSCc1ccccc1)c1c(Cl)cccc1Cl [Compound 65] : reported inhibition at 10 µM = 27%

---

propertyName: melting point

Entry O=C(NCCSCc1ccc(O)cc1)c1c(Cl)cccc1Cl ; melting point = 138 to 140 °C

melting point measured on O=C(NC1CC1)c1cccc(CSCCNC(=O)c2c(Cl)cccc2Cl)c1 = 42 to 43 °C

Input Cc1cccc(CSCCNC(=O)c2c(Cl)cccc2Cl)c1 . Output melting point: 56 to 57 °C

What the record says about O=C(NCCSCc1cccc(Cl)c1)c1c(F)cccc1F : melting point is 41 to 43 °C

Notebook: NC(=O)c1cccc(CSCCNC(=O)c2c(Cl)cccc2Cl)c1 , melting point read as 148 to 150 °C

melting point reported for this molecule O=C(NCCSCc1cccc(Cl)c1)c1c(Br)cccc1Br : 55 to 57 °C

Lab book: melting point of O=C(NCCSCc1cc(O)cc(O)c1)c1c(Cl)cccc1Cl noted as 55 to 57 °C

Looking up O=C(NCCSCc1cccc(F)c1)c1c(Cl)cccc1Cl , I found its melting point recorded as 70 to 72 °C

Lookup result for O=C(NCC[S+]([O-])Cc1cccc(Cl)c1)c1c(Cl)cccc1Cl (stereo not shown) ; measured melting point: 174 to 176 °C

For reference, reported melting point for COc1cccc(CSCCNC(=O)c2c(OC)cccc2OC)c1 stands at 41 to 43 °C

---

System: Aβ secretion
assayOverview: Secreted total Aβ ELISA in conditioned media of H4βAPP695 wt cells
Format: cell-based, human
assayContext: Homo sapiens, 24 h, 30 μM; H4βAPP695 wt cells, 24 h; read-out: Total Aβ (% decrease) 30 μM Mean
Exercise: state measured inhibition at 30 µM for each of the molecules provided.
Your answer is read as %, so omit the unit and give the number.

Query COc1cccc(CSCCNC(=O)c2c(Cl)cccc2Cl)c1OC yields inhibition at 30 µM of 72.8

For O=C(NCCSCc1cccc(C(F)(F)F)c1)c1c(Cl)cccc1Cl the molecule record lists inhibition at 30 µM as 93.4

# inhibition at 30 µM of O=C(NCC[S+]([O-])Cc1cccc(O)c1)c1c(Cl)cccc1Cl (centres unmarked) = 15.9

inhibition at 30 µM reported for this molecule O=C(Cc1c(Cl)cccc1Cl)NCCSCc1cccc(Cl)c1 : 13.5

Entry O=C(NCCOCc1cccc(Cl)c1)c1c(Cl)cccc1Cl ; inhibition at 30 µM = -5.1

get_value(item= O=C(NCCSCc1cccc(Cl)c1)c1ccccc1 , readout=inhibition at 30 µM) returns 10.7

inhibition at 30 µM reported for this molecule O=C(NCCSCc1cccc([N+](=O)[O-])c1)c1c(Cl)cccc1Cl : 72.5

Lookup result for N#Cc1c(Cl)cccc1CSCCNC(=O)c1c(Cl)cccc1Cl ; measured inhibition at 30 µM: 52.3

Entry Nc1cccc(CSCCNC(=O)c2c(Cl)cccc2Cl)c1 — recorded inhibition at 30 µM = 17

Noted for COc1cc(Cl)cc(CSCCNC(=O)c2c(Cl)cccc2Cl)c1 : its inhibition at 30 µM reads 81

# molecule Cc1cccc(CSCCNC(=O)c2c(Cl)cccc2Cl)c1 ; its inhibition at 30 µM = 85.8

O=C(NCCSCc1cccc(Cl)c1)c1c(C(F)(F)F)cccc1C(F)(F)F has a reported inhibition at 30 µM of 13.5

O=C(NCCSCc1cccc(Br)c1)c1c(Cl)cccc1Cl has a reported inhibition at 30 µM of 90.1

Field inhibition at 30 µM (entry O=C(NCC[S+]([O-])Cc1cccc(Cl)c1)c1c(Cl)cccc1Cl (centres unmarked) ) reads -16.5

So, O=C(NCCSCc1cccc(Br)c1)c1c(Br)cccc1Br ? Its inhibition at 30 µM was 87.3

// inhibition at 30 µM lookup, molecule = O=C(NCCSCc1ccc(O)cc1)c1c(Cl)cccc1Cl , result: 56.7

Input CCOC(=O)c1cccc(CSCCNC(=O)c2c(Cl)cccc2Cl)c1 . Output inhibition at 30 µM: 10.1

get_value(item= O=C(NCCSCc1ccccc1Cl)c1c(Cl)cccc1Cl , readout=inhibition at 30 µM) returns 80

The molecule listed as O=C(NCCSCc1cc(O)cc(O)c1)c1c(Cl)cccc1Cl has a reported inhibition at 30 µM of 17.2

Reported inhibition at 30 µM of O=Cc1cccc(CSCCNC(=O)c2c(Cl)cccc2Cl)c1 : 36.4
